Taken from patent US8710083B2.

# System: IL-2 production
# assay details: Inhibition of IL-2 production in PHA-activated Jurkat cells (ELISA)
# Type: cell-based
# measurement context: Homo sapiens, Jurkat, 20 h, PHA 2.5 μg/mL, IL-2 ELISA
Counter-ions that a name gives are not always drawn.
Parameter: log10(IC50). Scope: all listed entries.
assay endpoint: log10(IC50) (log10 of the value in nM)

compound	assayed system	log10(IC50)
Cc1ccc(-c2nnco2)cc1-c1ccc(NC(=O)c2c(F)cccc2F)nc1	IL-2 production	1.86
Cc1cc(NC(=O)c2c(F)cccc2F)ncc1-c1cccc(C(F)(F)F)c1	IL-2 production	1.20
Cc1nnsc1C(=O)Nc1ccc(-c2cc(-c3nccs3)ccc2Cl)cn1	IL-2 production	0.30
Cc1ccc(-c2ncco2)cc1-c1ccc(NC(=O)c2c(F)cccc2F)cn1 [Compound 20, hydrochloride]	IL-2 production	1.08
O=C(Nc1ccc(-c2cc(-c3ncco3)ccc2Cl)cn1)c1c(F)cccc1F	IL-2 production	0.48

----------
# System: IL-2 production
# assay details: Inhibition of IL-2 production in PHA-activated Jurkat cells (ELISA)
# Type: cell-based
# measurement context: Homo sapiens, Jurkat, 20 h, PHA 2.5 μg/mL, IL-2 ELISA
Parameter: log10 of IC50. Scope: all listed entries.
assay endpoint: log10 of IC50 (log10 of the value in nM)

smiles notation	observed measurement
Cc1ccc(-c2nnco2)cc1-c1ccc(NC(=O)c2c(F)cccc2F)cn1	1.99
COC(=O)c1ccc(Cl)c(-c2ccc(NC(=O)c3c(F)cccc3F)nc2)c1	0.78
O=C(Nc1ccc(-c2cc(-c3nnco3)ccc2Cl)cn1)c1c(F)cccc1F	1.23
Cc1nc(NC(=O)c2c(F)cccc2F)ccc1-c1cccc(C(F)(F)F)c1	1.99
Cc1ccc(-c2cnco2)cc1-c1ccc(NC(=O)c2c(F)cccc2F)nc1	0.95
O=C(Nc1ccc(-c2cc(-c3ncco3)ccc2Cl)nc1)c1c(F)cccc1F	0.95
Cc1nnsc1C(=O)Nc1ccc(-c2cc(C(F)(F)F)ccc2Cl)cn1	1.18
Cc1ccc(-c2ncco2)cc1-c1ccc(NC(=O)c2snnc2C)nc1	1.08
Cc1ccc(-c2ncco2)cc1-c1ccc(NC(=O)c2ccc(Cl)cc2F)cn1	2.26
Cc1ccc(-c2cnco2)cc1-c1ccc(NC(=O)c2snnc2C)nc1	1.49
COc1ccc(-c2cnco2)cc1-c1ccc(NC(=O)c2snnc2C)nc1	0.85
O=C(Nc1ccc(-c2cc(-c3nccs3)ccc2Cl)nc1)c1c(F)cccc1F	1.23
Cc1ccc(-c2nccs2)cc1-c1ccc(NC(=O)c2c(F)cccc2F)cn1	1.40
O=C(Nc1ccc(-c2cc(-c3nccs3)ccc2Cl)cn1)c1c(F)cccc1F	0.30
Cc1nnsc1C(=O)Nc1ccc(-c2cc(-c3ncco3)ccc2Cl)cn1	0.85
COC(=O)c1ccc(C)c(-c2ccc(NC(=O)c3c(F)cccc3F)nc2)c1	0.60
Cc1ccc(-c2cnco2)cc1-c1ccc(NC(=O)c2c(F)cccc2F)cn1	1.00
Cc1ccc(-c2ccno2)cc1-c1ccc(NC(=O)c2snnc2C)nc1	1.58
